LD50 at 360 h values, listed per item
# assay_summary: Acute toxicity in Mice
# Assay type: in vivo, mice (SWISS, EOPS, NMRI/Han, female)
# study_conditions: mouse, in vivo, iv, intravenous administration, method of KARBER and BEHRENS
recorded_metric: LD50 at 360 h (mg/kg)

> print(dat)
                                   compound  recorded.metric  unit.of.measure  experimental.value
1  OC1CCCCC1N1CCN(c2cccc(C(F)(F)F)c2)CC1 (stereo not shown)    LD50 at 360 h            mg/kg                  69
2  OCC(O)CN1CCN(c2cccc(C(F)(F)F)c2)CC1 (stereo not shown)    LD50 at 360 h            mg/kg                 252
3  O=C1CCCCC1CN1CCN(c2cccc(C(F)(F)F)c2)CC1 (stereo not shown)    LD50 at 360 h            mg/kg                  61
4  O=C(CN1CCN(c2cccc(C(F)(F)F)c2)CC1)CN1CCN(c2cccc(C(F)(F)F)c2)CC1    LD50 at 360 h            mg/kg                  18
5  O=C1CCCC1CN1CCN(c2cccc(C(F)(F)F)c2)CC1 (stereo not shown)    LD50 at 360 h            mg/kg                  74
6  OC1CCCCC1CN1CCN(c2cccc(C(F)(F)F)c2)CC1 (stereo not shown)    LD50 at 360 h            mg/kg                  66
7  OC(CN1CCN(c2cccc(C(F)(F)F)c2)CC1)CN1CCN(c2cccc(C(F)(F)F)c2)CC1    LD50 at 360 h            mg/kg                  36

---

# assay_summary: Acute toxicity in Mice
# Type: in vivo, mice (SWISS, EOPS, NMRI/Han, female)
# study_conditions: oral administration
recorded_metric: LD 100 (minimum lethal dose)

> print(dat)
                                   compound  experimental.value
1  OCC(O)CN1CCN(c2ccc(F)c(C(F)(F)F)c2)CC1 (stereo not drawn) [LJ 1121]          1250 mg/kg
2  OC1CCCCC1N1CCN(c2cccc(C(F)(F)F)c2)CC1 (stereo not drawn) [LJ 1143]          1000 mg/kg
3  OCC(O)CN1CCN(c2cccc(C(F)(F)F)c2)CC1 (stereo not drawn) [LJ 1142]          1500 mg/kg
4  OC1CCCCC1CN1CCN(c2cccc(C(F)(F)F)c2)CC1 (stereo not drawn) [LJ 1161]          2000 mg/kg
5  OCCN1CCN(c2ccc(F)c(C(F)(F)F)c2)CC1 [LJ 1195]          1250 mg/kg
6  OC(CN1CCN(c2ccc(F)c(C(F)(F)F)c2)CC1)CN1CCN(c2ccc(F)c(C(F)(F)F)c2)CC1 [LJ 1198]           400 mg/kg
7  O=C(CN1CCN(c2cccc(C(F)(F)F)c2)CC1)CN1CCN(c2cccc(C(F)(F)F)c2)CC1 [LJ 1163]           250 mg/kg
8  O=C1CCCC1CN1CCN(c2cccc(C(F)(F)F)c2)CC1 (stereo not drawn) [LJ 1160]          1500 mg/kg
9  OC(CN1CCN(c2cccc(C(F)(F)F)c2)CC1)CN1CCN(c2cccc(C(F)(F)F)c2)CC1 [LJ 1152]           375 mg/kg

---

# assay_summary: Acute toxicity in Mice
# Type: in vivo, mice (SWISS, EOPS, NMRI/Han, female)
# study_conditions: intravenous administration
recorded_metric: LD 100 (minimum lethal dose) (mg/kg)

> print(dat)
                                   compound               recorded.metric  experimental.value
1  O=C1CCCC1CN1CCN(c2cccc(C(F)(F)F)c2)CC1 (centres unmarked) [LJ 1160]  LD 100 (minimum lethal dose)                87.5
2  O=C1CCCCC1CN1CCN(c2cccc(C(F)(F)F)c2)CC1 (centres unmarked) [LJ 1144]  LD 100 (minimum lethal dose)                  75
3  OC1CCCCC1CN1CCN(c2cccc(C(F)(F)F)c2)CC1 (centres unmarked) [LJ 1161]  LD 100 (minimum lethal dose)                87.5
4  OC(CN1CCN(c2cccc(C(F)(F)F)c2)CC1)CN1CCN(c2cccc(C(F)(F)F)c2)CC1 [LJ 1154]  LD 100 (minimum lethal dose)                  44
5  OCC(O)CN1CCN(c2cccc(C(F)(F)F)c2)CC1 (centres unmarked) [LJ 1142]  LD 100 (minimum lethal dose)                 300
6  OC1CCCCC1N1CCN(c2cccc(C(F)(F)F)c2)CC1 (centres unmarked) [LJ 1143]  LD 100 (minimum lethal dose)                  81
7  OC(CN1CCN(c2cccc(C(F)(F)F)c2)CC1)CN1CCN(c2cccc(C(F)(F)F)c2)CC1 [LJ 1152]  LD 100 (minimum lethal dose)                  50
8  O=C(CN1CCN(c2cccc(C(F)(F)F)c2)CC1)CN1CCN(c2cccc(C(F)(F)F)c2)CC1 [LJ 1163]  LD 100 (minimum lethal dose)                22.5
